- EXPERIMENTAL PROTOCOL: mn = molality of the nth substance listed, in mol/kg
- TEST CONTEXT: 323.15 K; 100 kPa; Liquid; Vibrating tube method; m1 = 0.7
Property: mass density; scope: individual molecules
Quick reminder: number only, in kg/m3, skip the unit.

Solved entries:
>>> print(df.to_string())
                                   molecule  numeric_value
0  N=C(N)NCCC[C@H](N)C(=O)O [L-arginine] + O        1018.67
1         NCC(=O)O [2-aminoacetic acid] + O        1008.69
2  C[C@@H](O)[C@H](N)C(=O)O [L-threonine] + O        1014.96

Quick one: mass density of C[C@H](N)C(=O)O [(S)-2-aminopropanoic acid] + O ?
1006.6

* * *

- EXPERIMENTAL PROTOCOL: mn = molality of the nth substance listed, in mol/kg
- TEST CONTEXT: 293.15 K; 100 kPa; Liquid; Vibrating tube method; m1 = 0.2
± gives the expanded uncertainty stated by the source.
Parameter mass density: see the listing below.
Remember to put the unit after the number in your answer.

Below: 5 compounds and their reported mass density.
>>> print(df.to_string())
                                   compound               result
0  N=C(N)NCCC[C@H](N)C(=O)O [L-arginine] + O  1007.98 ± 1.4 kg/m3
1  C[C@@H](O)[C@H](N)C(=O)O [L-threonine] + O  1006.54 ± 1.4 kg/m3
2  C[C@H](N)C(=O)O [(S)-2-aminopropanoic acid] + O  1003.89 ± 1.4 kg/m3
3  OC[C@@H](O)[C@@H](O[C@H]1O[C@H](CO)[C@@H](O)[C@H](O)[C@H]1O)[C@H](O)[C@@H](O)CO [4-O-α-D-glucopyranosyl-D-glucitol] + O  1022.97 ± 1.4 kg/m3
4        CC(C)[C@H](N)C(=O)O [L-valine] + O   1003.5 ± 1.4 kg/m3

Turning now to a further record.
Entry under review: NCC(=O)O [2-aminoacetic acid] + O . Reported mass density?
1004.56 ± 1.4 kg/m3

* * *

- EXPERIMENTAL PROTOCOL: mn = molality of the nth substance listed, in mol/kg
- TEST CONTEXT: 293.15 K; 100 kPa; Liquid; Capillary tube (Ostwald / Ubbelohde) method; m1 = 0.2
TEST READOUT: viscosity (mPa·s)
Respond with the bare value in mPa·s.

Worked examples, 5 molecules total:
>>> df
                                   molecule  numeric_value
0  C[C@H](N)C(=O)O [(S)-2-aminopropanoic acid] + O          1.053
1  N=C(N)NCCC[C@H](N)C(=O)O [L-arginine] + O          1.109
2        CC(C)[C@H](N)C(=O)O [L-valine] + O          1.088
3         NCC(=O)O [2-aminoacetic acid] + O          1.027
4  C[C@@H](O)[C@H](N)C(=O)O [L-threonine] + O           1.07

Kindly consider the entry below.
Recorded viscosity of OC[C@@H](O)[C@@H](O[C@H]1O[C@H](CO)[C@@H](O)[C@H](O)[C@H]1O)[C@H](O)[C@@H](O)CO [4-O-α-D-glucopyranosyl-D-glucitol] + O , please.
1.202

* * *

- EXPERIMENTAL PROTOCOL: mn = molality of the nth substance listed, in mol/kg
- TEST CONTEXT: 323.15 K; 100 kPa; Liquid; Capillary tube (Ostwald / Ubbelohde) method; m1 = 0.3
TEST READOUT: viscosity (mPa·s)
Write it as a number; the unit mPa·s goes unstated.

>>> df
                                   compound  numeric_value
0         NCC(=O)O [2-aminoacetic acid] + O          0.574
1  N=C(N)NCCC[C@H](N)C(=O)O [L-arginine] + O          0.625
2  C[C@@H](O)[C@H](N)C(=O)O [L-threonine] + O          0.596
3        CC(C)[C@H](N)C(=O)O [L-valine] + O          0.608

Param item = C[C@H](N)C(=O)O [(S)-2-aminopropanoic acid] + O ; retrieve measured viscosity.
0.584

* * *

// reported mass density for each item listed
- EXPERIMENTAL PROTOCOL: mn = molality of the nth substance listed, in mol/kg
- TEST CONTEXT: 303.15 K; 100 kPa; Liquid; Vibrating tube method; m1 = 0.6
Give the quantity in kg/m3, number only.

                                   compound  unit_tag  numeric_value
0         NCC(=O)O [2-aminoacetic acid] + O     kg/m3        1013.87
1  OC[C@@H](O)[C@@H](O[C@H]1O[C@H](CO)[C@@H](O)[C@H](O)[C@H]1O)[C@H](O)[C@@H](O)CO [4-O-α-D-glucopyranosyl-D-glucitol] + O     kg/m3        1062.88
2  C[C@H](N)C(=O)O [(S)-2-aminopropanoic acid] + O     kg/m3        1011.97

Entry C[C@@H](O)[C@H](N)C(=O)O [L-threonine] + O : reported mass density = ?
1019.43

Reported mass density for N=C(N)NCCC[C@H](N)C(=O)O [L-arginine] + O : what is it?
1022.85

* * *

- EXPERIMENTAL PROTOCOL: mn = molality of the nth substance listed, in mol/kg
- TEST CONTEXT: 293.15 K; 100 kPa; Liquid; Capillary tube (Ostwald / Ubbelohde) method; m1 = 0.5
TEST READOUT: viscosity (mPa·s)
Give just the numeric value; mPa·s need not be written.

>>> df
                                   compound  test_readout  unit_tag  numeric_value
0  C[C@H](N)C(=O)O [(S)-2-aminopropanoic acid] + O     viscosity     mPa·s          1.134
1  C[C@@H](O)[C@H](N)C(=O)O [L-threonine] + O     viscosity     mPa·s          1.182
2         NCC(=O)O [2-aminoacetic acid] + O     viscosity     mPa·s           1.07

Next compound, viscosity to be filled in.
Reported viscosity, compound N=C(N)NCCC[C@H](N)C(=O)O [L-arginine] + O : ____
1.296

* * *

- EXPERIMENTAL PROTOCOL: mn = molality of the nth substance listed, in mol/kg
- TEST CONTEXT: 303.15 K; 100 kPa; Liquid; Vibrating tube method; m1 = 0.5
# mass density listing for each entry below
The reply should be a number in kg/m3, with the unit left off.

In [3]: df
Out[3]:
                                   compound  test_readout  unit_tag  numeric_value
0         NCC(=O)O [2-aminoacetic acid] + O  mass density     kg/m3        1010.94
1  N=C(N)NCCC[C@H](N)C(=O)O [L-arginine] + O  mass density     kg/m3        1018.66
2  C[C@H](N)C(=O)O [(S)-2-aminopropanoic acid] + O  mass density     kg/m3        1009.37

Turning now to a further compound:
For C[C@@H](O)[C@H](N)C(=O)O [L-threonine] + O , what is its reported mass density?
1015.67

* * *

- EXPERIMENTAL PROTOCOL: mn = molality of the nth substance listed, in mol/kg
- TEST CONTEXT: 313.15 K; 100 kPa; Liquid; Vibrating tube method; m1 = 0.5
Listing of entries alongside the reported mass density.
The answer is to be given in kg/m3; state only the numeric part.

Reference set, count: 3
>>> df
                                   compound  numeric_value
0         NCC(=O)O [2-aminoacetic acid] + O        1007.32
1  C[C@H](N)C(=O)O [(S)-2-aminopropanoic acid] + O        1005.79
2  N=C(N)NCCC[C@H](N)C(=O)O [L-arginine] + O        1014.97

Now for another entry.
Which mass density is reported for this compound? C[C@@H](O)[C@H](N)C(=O)O [L-threonine] + O
1012.03

* * *

The following compounds are shown together with reported viscosity values.
- EXPERIMENTAL PROTOCOL: mn = molality of the nth substance listed, in mol/kg
- TEST CONTEXT: 303.15 K; 100 kPa; Liquid; Capillary tube (Ostwald / Ubbelohde) method; m1 = 0.4
# unit: mPa·s | format: bare number

Take a look at these entries with their results.
                                   compound  numeric_value
0  N=C(N)NCCC[C@H](N)C(=O)O [L-arginine] + O          0.969
1        CC(C)[C@H](N)C(=O)O [L-valine] + O          0.936
2  C[C@H](N)C(=O)O [(S)-2-aminopropanoic acid] + O          0.878
3  C[C@@H](O)[C@H](N)C(=O)O [L-threonine] + O          0.907
4  OC[C@@H](O)[C@@H](O[C@H]1O[C@H](CO)[C@@H](O)[C@H](O)[C@H]1O)[C@H](O)[C@@H](O)CO [4-O-α-D-glucopyranosyl-D-glucitol] + O          1.134

Alright, here's another compound for you.
Data request, read-out viscosity, for NCC(=O)O [2-aminoacetic acid] + O
0.844
